Tested on: HCC1569
Experiment: cell number relative to DMSO (% of DMSO); higher = more cells (less growth inhibition / toxicity)
Details: concentration: 10 µM; 24 h
Listing: cell number of selected compounds
In your answer, state the number alone without any accompanying words.

// solved cases for cell number follow
CCCN1CCCC[C@H]1C(=O)Nc1c(C)cccc1C.Cl.O :: 99.7
CC(C)NCC(O)c1ccc(NS(C)(=O)=O)cc1.Cl (racemic) :: 108
CC(C)C(N)C(=O)OCCOCn1cnc2c(=O)nc(N)[nH]c21 (stereo not given) :: 99.8
O=C1CCC(c2ccc(-n3ccnc3)cc2)=NN1 :: 95.5
Oc1cc(O)c2c(c1)OC(c1ccc(O)c(O)c1)C(O)C2 (single isomer, unassigned; (-)) [(-)-Epicatechin] :: 102

Name the recorded cell number for CCCCCN(CCCCC)C(=O)C(CCC(=O)[O-])NC(=O)c1ccc(Cl)c(Cl)c1.[Na+] (stereo not given) [Lorglumide sodium] .
103

One more compound: O=C(c1ccc(Nc2nccc(-c3cc4ccccc4s3)n2)cc1)N1CCC(N2CCCC2)CC1
61.6

Quick one: CCCCC1C(=O)N(c2ccccc2)N(c2ccccc2)C1=O
101

Same read-out for O=C(O)CNC(=O)C(CS)Cc1ccccc1 (racemic) ?
105

Okay, and COc1cc(C(O)C(=O)O)ccc1O (stereo not given) [hydroxy(4-hydroxy-3-methoxyphenyl)acetic acid] ?
99.7

* * *

Test system: TDF
Test: cell number relative to DMSO (% of DMSO); higher = more cells (less growth inhibition / toxicity)
Conditions: concentration: 10 µM; 24 h
Measured cell number by item
Note: the reply should be a number with no unit written.

Brc1c(NC2=NCCN2)ccc2nccnc12 :: 102

Fill in the blank: the reported cell number of CC(C)CNCc1ccc(-c2ccccc2S(=O)(=O)N2CCCC2)cc1.Cl is ____.
99.2

Entry to check: CC(COc1ccccc1)N(CCCl)Cc1ccccc1.Cl (stereo unspecified) [Phenoxybenzamine.HCl]
103

How about this compound: NC(=O)c1ccc2[nH]ccc2c1
97.1

Repeat with CCN1CCCC1CNC(=O)c1c(O)c(Cl)cc(Cl)c1OC (stereo not drawn) [S(-)-Raclopride]
97.5

Would you mind doing CC(C)COCC(CN(Cc1ccccc1)c1ccccc1)N1CCCC1.Cl (stereo unspecified) [Bepridil hydrochloride] as well?
103

* * *

Test system: HCC1569
Experiment: cell number relative to DMSO (% of DMSO); higher = more cells (less growth inhibition / toxicity)
Conditions: concentration: 10 µM; 24 h
measurement-type: cell number
Hey, just send me the number, nothing else.

Field: example entries. Status: answers known.
Nc1ncnc2c1C(=O)N(c1ccc(C3CCC(CC(=O)O)CC3)cc1)CCO2 (centres undefined) :: 103
CC1=NN(c2ccccc2)C(=O)C1 :: 101
Clc1ccc2c(c1)CCc1cccnc1C2=C1CCNCC1 [Desloratadine] :: 98.1

Turning to the following compound.
Please report the recorded cell number for CC(C)NCC(O)c1cc(O)cc(O)c1.CC(C)NCC(O)c1cc(O)cc(O)c1.O=S(=O)(O)O (centres undefined) [Metaproterenol hemisulfate] .
102

* * *

Test system: TDF
Test: H1.0 immunofluorescence intensity relative to DMSO (% of DMSO); higher = stronger H1.0 induction, active = 120 or more
Conditions: concentration: 10 µM; 24 h
Hello, when you answer, please use one of the following outcomes: 1 (active), -1 (inactive)

Examples from the recorded data:
CC1=C(C(=O)Nc2cc3cn[nH]c3cc2F)C(c2ccc(C(F)(F)F)cc2)CC(=O)N1 (stereo not drawn) :: -1
Cc1c(C)c2c(c(C)c1OC(=O)CCC(=O)O)CCC(C)(CCCC(C)CCCC(C)CCCC(C)C)O2 (stereo not drawn) [Tocopherol succinate] :: -1
O=c1cc(-c2ccc(O)cc2)oc2cc(O)cc(O)c12 :: -1

GET /call?item= COC(=O)Nc1nc2ccc(C(=O)c3ccccc3)cc2[nH]1 returns the recorded outcome of this test.
1

Again, but for CCOc1nc(NC(=O)Cc2cc(OC)ccc2OC)cc(N)c1C#N
-1

Another compound to check: Cc1ccc(S(=O)(=O)NC(=O)NN2CCCCCC2)cc1 [Tolazamide]
-1

Same question for CCN1C(=CC(C)=O)Sc2ccc(OC)cc21 please.
-1

One more compound: CCCCCC(=O)C=CC=CCCCCCCCC(=O)O
-1

// provenance: the supplement of paper PMC7156485
